test system: HS 578T breast; assay: NCI-60 one-dose screen, 48 h; conditions: 10 µM unless noted
Compounds without any hit were thinned out: in the full panel of roughly 83,000, 20% have a hit. Activity calls are given as the source filed them. The calls were made as follows: active = growth percent below 10; inactive = the rest.
Use one of these outcomes when replying: active, inactive

Below are worked cases with known answers.
Inquiry: GET /call?item= "CNC1(C#N)CCN(Cc2ccccc2)CC1" returns the recorded outcome of this test.
Reply text: inactive

Inquiry: What was the test verdict on "Nc1nc(Nc2ccc(Cl)cc2)nn1S(=O)(=O)c1ccc(-c2ccc(F)cc2)cc1" ?
Reply text: inactive

Inquiry: What did this assay record as the result for N#Cc1c(-c2ccccc2)nc(SCC2CO2)nc1N1CCOCC1 (stereo not drawn) ?
Reply text: inactive

Inquiry: Hey, what did the test say about "N=C(N)c1ccc(-c2ccc(-c3ccc(Cl)c(Cl)c3)o2)nc1" ?
Reply text: inactive

Inquiry: Outcome logged for "Cc1nc(Nc2ccc(NC(=S)Nc3ccccc3)cc2)c2ccccc2n1" in this assay:
Reply text: inactive

Inquiry: Any idea what this test logged for Cc1c(C)c2c(c(C)c1NC(=O)/C=C\C(=O)O)CCC(C)(CCCC(C)CCCC(C)CCCC(C)C)O2 (stereo not drawn) ?
Reply text: inactive

***
Inquiry: So what was the verdict on "CC(C)N(CCOC(=O)Nc1ccccc1Cl)C(C)C" in this test?
Reply text: inactive

Inquiry: # outcome recorded in this test, key = "CC(=O)OCCc1ccccc1"
Reply text: inactive

Inquiry: Dear all, I need the recorded test outcome for "Cc1ccccc1NC(=O)CN(C)C" , thank you.
Reply text: inactive

Inquiry: // outcome(item) with item = "O=C(Nc1cccc2[nH]c(C(F)(F)F)nc12)c1cc(Cl)ccc1Cl"
Reply text: inactive

Inquiry: Which outcome was entered for the compound "O=C(CC12CC3CC(CC(C3)C1)C2)NCCOCCOCCOCCNC(=O)c1cc2c(o1)C(=O)c1ccccc1C2=O" in this test?
Reply text: active

Inquiry: Fill in: this test's call for "COc1ccc(/C(C)=C(\c2ccc(Cl)cc2)c2ccc(OCCN(C)C)cc2)cc1F" is ___
Reply text: inactive

Inquiry: Recorded call for "O=C1NCC(=O)N(Cc2ccco2)[C@H]1Cc1ccccc1" ?
Reply text: inactive

Inquiry: Assay result, entry O=C1Nc2ccccc2SC1C1SC(=S)N(Cc2ccccc2)C1=O (stereo not drawn) — outcome?
Reply text: inactive

Inquiry: GET /call?item= "CC(=O)c1sc(-c2ccccc2)cc1N" returns the recorded outcome of this test.
Reply text: inactive

Inquiry: # outcome recorded in this test, key = CC12CC(C#N)CCC1O2 (stereo not drawn)
Reply text: inactive

Inquiry: Call for entry "NC(=O)c1c(NC(=O)c2ccc(C(F)(F)F)cc2Cl)sc2c1CCC(=O)C2" :
Reply text: active

Inquiry: Can you look up the reported call for "CCCCN(CCCC)CCCn1c(=O)c2sc3ncccc3c2n2nnc(-c3ccccc3)c12" for me?
Reply text: inactive

Inquiry: What call does the record list for "Cc1ccc(-n2nnc(C3=NCCc4c3[nH]c3ccc(Cl)cc43)c2C)cc1" ?
Reply text: inactive

Inquiry: Just curious, what result did "Cc1c(C(N)=O)sc2nc(C)n(/N=c3\scc(-c4ccccc4)n3Cc3ccccc3)c(=O)c12" get here?
Reply text: active

Inquiry: For this compound, state the assay outcome: "CCCCCCCCCCCCCCCCCC1=NCCN1C(=O)OCCO"
Reply text: inactive

Inquiry: Hello, I am checking results. What call was entered for C=C1c2c(C)nn(-c3ccc(NC(C)=O)cc3)c2N(C)C23CC1C1(C)c4c(C)nn(-c5ccc(NC(C)=O)cc5)c4N(C)C(C)(CC12)C3 (stereo not drawn) ?
Reply text: inactive

Inquiry: For "CCOc1cc(N)ccc1C(=O)NCCCN(CC)CC" , what call appears in the results of this test?
Reply text: inactive
